target: AChE (Electrophorus electricus); assay: AChE inhibition, modified Ellman spectrophotometric method; assay type: biochemical; settings: read-out: AChE % Inhibition 10^−4 M
Sequence (O42275 24-633): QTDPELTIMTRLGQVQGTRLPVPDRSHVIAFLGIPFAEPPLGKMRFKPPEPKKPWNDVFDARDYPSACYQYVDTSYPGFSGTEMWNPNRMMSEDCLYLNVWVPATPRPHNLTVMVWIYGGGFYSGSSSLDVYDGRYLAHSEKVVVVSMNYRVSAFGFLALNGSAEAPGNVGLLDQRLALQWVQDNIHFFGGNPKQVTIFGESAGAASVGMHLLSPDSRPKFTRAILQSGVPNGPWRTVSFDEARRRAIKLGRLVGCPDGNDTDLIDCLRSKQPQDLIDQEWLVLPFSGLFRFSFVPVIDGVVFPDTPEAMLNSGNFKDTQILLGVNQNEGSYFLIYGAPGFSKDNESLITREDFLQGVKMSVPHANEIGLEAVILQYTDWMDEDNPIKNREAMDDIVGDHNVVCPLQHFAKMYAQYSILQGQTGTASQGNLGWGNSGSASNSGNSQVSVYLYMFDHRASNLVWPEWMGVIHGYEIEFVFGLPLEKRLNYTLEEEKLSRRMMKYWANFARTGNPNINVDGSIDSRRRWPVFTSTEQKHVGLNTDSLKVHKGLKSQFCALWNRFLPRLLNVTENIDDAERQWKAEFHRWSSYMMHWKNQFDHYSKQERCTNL
Endpoint Label: inhibition at 100 µM (%)
Just the number in %, nothing appended.

Illustrative cases are given below, each with its answer.
{"columns": ["Molecule", "inhibition at 100 µM / %"],
 "data": [
  ["Oc1cccc(C=NNc2nc(-c3ccc(C(F)(F)F)cc3)cs2)c1O", 45.1],
  ["COc1cccc(C=NNc2nc(-c3ccc(C(F)(F)F)cc3)cs2)c1OC", 40.5],
  ["COc1cc(C=NNc2nc(-c3ccc(C(F)(F)F)cc3)cs2)cc(OC)c1OC", 40.8],
  ["COc1cccc(C=NNc2nc(-c3ccc(C(F)(F)F)cc3)cs2)c1", 85.4],
  ["COc1ccc(C=NNc2nc(-c3ccc(C(F)(F)F)cc3)cs2)cc1OC", 88.3]
]}

Task: State, for AChE (Electrophorus electricus), measured inhibition at 100 µM of the compound listed here: COc1cc(C=NNc2nc(-c3ccc(C(F)(F)F)cc3)cs2)cc(OC)c1O
Output: 35.4

Task: State, for AChE (Electrophorus electricus), measured inhibition at 100 µM of the compound listed here: Oc1ccc(C=NNc2nc(-c3ccc(C(F)(F)F)cc3)cs2)cc1
Output: 82.2

Task: State, for AChE (Electrophorus electricus), measured inhibition at 100 µM of the compound listed here: FC(F)(F)c1ccc(-c2csc(NN=Cc3ccc4c(c3)OCO4)n2)cc1
Output: 41.9

Task: State, for AChE (Electrophorus electricus), measured inhibition at 100 µM of the compound listed here: Oc1cccc(C=NNc2nc(-c3ccc(C(F)(F)F)cc3)cs2)c1
Output: 90.5

Task: State, for AChE (Electrophorus electricus), measured inhibition at 100 µM of the compound listed here: COc1ccc(O)c(C=NNc2nc(-c3ccc(C(F)(F)F)cc3)cs2)c1
Output: 84.9

Task: State, for AChE (Electrophorus electricus), measured inhibition at 100 µM of the compound listed here: COc1ccc(C=NNc2nc(-c3ccc(C(F)(F)F)cc3)cs2)cc1O
Output: 92.1

Task: State, for AChE (Electrophorus electricus), measured inhibition at 100 µM of the compound listed here: COc1ccccc1C=NNc1nc(-c2ccc(C(F)(F)F)cc2)cs1
Output: 82.4

Taken from paper PMC7570694.
